TARGET DESC: Human Polθ polymerase domain (aa1820-2590) (Homo sapiens, UniProt O75417)
Sequence (O75417 1820-2590): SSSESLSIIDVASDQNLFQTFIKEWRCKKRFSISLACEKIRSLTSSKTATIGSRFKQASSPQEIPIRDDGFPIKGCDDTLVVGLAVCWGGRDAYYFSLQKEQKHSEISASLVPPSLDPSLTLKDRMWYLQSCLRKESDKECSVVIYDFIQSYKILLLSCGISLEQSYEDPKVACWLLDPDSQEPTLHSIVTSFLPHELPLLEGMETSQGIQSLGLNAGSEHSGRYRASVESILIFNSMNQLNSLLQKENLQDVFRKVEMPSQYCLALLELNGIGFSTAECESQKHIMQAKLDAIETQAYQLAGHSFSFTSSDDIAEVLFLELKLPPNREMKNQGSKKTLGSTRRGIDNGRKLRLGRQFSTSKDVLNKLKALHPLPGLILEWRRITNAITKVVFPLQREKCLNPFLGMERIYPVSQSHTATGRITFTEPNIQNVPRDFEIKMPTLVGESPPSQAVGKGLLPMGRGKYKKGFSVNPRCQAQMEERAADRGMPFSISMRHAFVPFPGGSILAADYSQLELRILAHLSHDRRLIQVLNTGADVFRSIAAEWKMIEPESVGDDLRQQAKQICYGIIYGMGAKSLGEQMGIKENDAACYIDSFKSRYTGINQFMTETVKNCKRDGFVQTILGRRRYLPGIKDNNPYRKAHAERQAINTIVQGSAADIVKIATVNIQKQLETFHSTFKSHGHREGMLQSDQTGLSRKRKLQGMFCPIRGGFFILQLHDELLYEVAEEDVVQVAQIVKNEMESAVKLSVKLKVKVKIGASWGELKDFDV
Where a name gives a salt, the structure may show the parent alone.
EXPERIMENTAL ENDPOINT: pKi
Bear in mind: pKi is minus log10 of a mol/L concentration; give just that figure.

COMPOUND	pKi
Cc1cc(C(F)(F)F)cc(N2C(=O)C[C@@H]3CN(CC4COCCN4)c4c(F)cccc4N(C)C(=O)[C@H]32)n1 (single isomer, unassigned) [Example 106a]	7.86
Cc1cc(C(F)(F)F)cc(N2C(=O)C[C@@H]3CN(CCN4CCN(C)CC4)c4c(C)cccc4NC(=O)[C@H]32)n1 [Example 149]	8.49
Cc1cc(C(F)(F)F)cc(N2C(=O)C[C@@H]3CN(CC(C)O)c4c(Cl)cccc4N(C)C(=O)[C@H]32)n1 (mixture of isomers) [Example 131a]	8.70

Inquiry: Dear colleague, I am looking for the recorded pKi of the following compound: Cc1cc(C(F)(F)F)cc(N2C(=O)C[C@@H]3CN(CC4COCCN4C)c4c(Cl)cccc4N(C)C(=O)[C@H]32)n1 (single isomer, unassigned) [Example 119b]
Reply text: 8.97

Inquiry: Dear colleague, I am looking for the recorded pKi of the following compound: Cc1cc(C(F)(F)F)cc(N2C(=O)C[C@@H]3CN(CCN4CC[C@H](N(C)C)[C@H](F)C4)c4c(Cl)cccc4N(C)C(=O)[C@H]32)n1 [Example 35, hydrochloride]
Reply text: 8.96

Inquiry: Dear colleague, I am looking for the recorded pKi of the following compound: Cc1cc(C(F)(F)F)cc(N2C(=O)C[C@@H]3CN(Cc4cc5n(n4)CCN(C)C5)c4c(Cl)cccc4N(C)C(=O)[C@H]32)n1 [Example 76]
Reply text: 9.34
